Molecular target: T1, alpha-amylase (Homo sapiens, UniProt P0DUB6 P0DUB6:16-511)
T1 sequence: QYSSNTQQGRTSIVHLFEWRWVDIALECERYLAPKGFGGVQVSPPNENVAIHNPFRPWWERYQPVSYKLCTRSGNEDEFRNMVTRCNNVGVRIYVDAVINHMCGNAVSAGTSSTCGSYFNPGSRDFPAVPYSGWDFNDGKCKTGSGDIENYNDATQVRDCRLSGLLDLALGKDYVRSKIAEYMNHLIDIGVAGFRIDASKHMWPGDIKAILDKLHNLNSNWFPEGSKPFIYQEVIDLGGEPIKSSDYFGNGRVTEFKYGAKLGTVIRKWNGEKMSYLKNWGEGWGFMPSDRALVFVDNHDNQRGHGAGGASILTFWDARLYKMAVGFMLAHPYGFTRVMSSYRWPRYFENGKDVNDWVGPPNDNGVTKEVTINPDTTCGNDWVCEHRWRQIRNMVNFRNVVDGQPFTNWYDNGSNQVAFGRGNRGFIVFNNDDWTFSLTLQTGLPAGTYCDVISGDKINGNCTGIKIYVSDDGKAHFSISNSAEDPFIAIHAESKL
Test: SPR; SPR buffer with 1 mM MgCl2, pH 7.4; Chi2 23.63
Conditions: tags: none stated; commercial human alpha-amylase, Lee Biosolutions; label: 3' poly(dA)20 captured on biotin-poly(dT)20
reported.metric: pKd
Expect pKd as a plain number equal to -log10 of the molar concentration.

Query :: Given the binder AML1243KR8m3s63 (ssDNA, KS9 modified T (formula 1) at underlined T, i.e. T 3' of the 5' primer region) DNA: GGATACCTTAACGCCGCCTATTGCGAGGTGTGGCTAGTCGTTATAGGTCCACCGAGTTGCACCAAAAAAAAAAAAAAAAAAAA , what is its reported pKd?
Result :: 7.79

Where do the numbers come from? From patent US20180327746.
